# Test system: MOLT-4 leukemia
# RUN DESCRIPTION: NCI tumour cell line growth inhibition, 48 h
ENDPOINT: TGI

Record Cc1cc(C(=O)NC(CCC(=O)O)C(=O)O)sc1CCC1CNc2nc(N)[nH]c(=O)c2C1 (stereo unspecified) ; system MOLT-4 leukemia; TGI = > 100 µM

Record COc1ccc(N=Nc2c(C)c(C#N)c(=S)n(C3OC(CO)C(O)C(O)C3O)c2C)cc1 (stereo unspecified) ; system MOLT-4 leukemia; TGI = 84.6 µM

Record Cc1ccn2c(CCc3nnc4cc(C)ccn34)nnc2c1 ; system MOLT-4 leukemia; TGI = > 100 µM

Record O=S1(=O)CCCS(=O)(=O)C(c2ccccc2)=C1c1ccccc1 ; system MOLT-4 leukemia; TGI = > 100 µM

Record O=C(CCCl)NNC1=NCCCCN1 ; system MOLT-4 leukemia; TGI = > 100 µM

Record CC1=C(Cl)C=CP(=O)(OC(C)C)C1 (stereo unspecified) ; system MOLT-4 leukemia; TGI = > 100 µM

Record O=[N+]([O-])c1cc(Cl)ccc1OCc1ccccc1 ; system MOLT-4 leukemia; TGI = > 100 µM

Record O=C1NC(N2CCCCC2)=N/C1=C\c1ccccc1O ; system MOLT-4 leukemia; TGI = > 100 µM

Record CCC(=O)Nc1ccccc1C#C/C=C\C#Cc1ccccc1C(F)(F)F ; system MOLT-4 leukemia; TGI = > 23.3 µM

Record N#Cc1c(Cl)nc2ccccc2c1N=[N+]=[N-] ; system MOLT-4 leukemia; TGI = 3.17 µM

Record COc1cc2c(cc1OC)NC(=O)NC(Cc1ccc3c(c1)OCO3)CC2 (stereo unspecified) ; system MOLT-4 leukemia; TGI = > 100 µM

Record CC1(C)C(=O)/C=C\C(=O)C(C)(C)C(=O)/C=C\C(=O)C(C)(C)C(=O)/C=C\C(=O)C(C)(C)C(=O)/C=C\C1=O ; system MOLT-4 leukemia; TGI = 26.7 µM

Record C[CH2][Ge]([CH2]C)([CH2]C)[O]C(=O)CCC(=O)[O][Ge]([CH2]C)([CH2]C)[CH2]C ; system MOLT-4 leukemia; TGI = > 100 µM

Record CC(C)(C)OC(=O)C1=C2C=C(O)C=CC2(C)N(Cc2ccccc2)C1=N (stereo unspecified) ; system MOLT-4 leukemia; TGI = > 32.7 µM

Record O=C1NC(=O)/C(=C/c2ccc(S(=O)(=O)N/N=C\C(O)C(O)C(O)C(O)CO)cc2)N1 (stereo unspecified) ; system MOLT-4 leukemia; TGI = > 100 µM

Record CC1=CC(C)C(C)N(CCNS(=O)(=O)c2ccc(C)cc2)c2ccccc21 (stereo unspecified) ; system MOLT-4 leukemia; TGI = 23.5 µM

Record CC1(S)CC2C(CC1Sc1ccccc1)C2(C)C (stereo unspecified) ; system MOLT-4 leukemia; TGI = > 100 µM

Record C[C@]12CC[C@H]3[C@@H](C[C@@H]4SC(Nc5ccccc5)=N[C@@]45CC(O)CC[C@]35C)[C@@H]1CCC2O (stereo partly specified) ; system MOLT-4 leukemia; TGI = 8.07 µM

Record CN(C)CC(C(=O)Cc1ccccc1)c1ccccc1 (stereo unspecified) ; system MOLT-4 leukemia; TGI = > 100 µM

Record COc1cc(Nc2nnc3n2S(=O)(=O)c2cc(C)c(Cl)cc2S3)cc(OC)c1 ; system MOLT-4 leukemia; TGI = 60.9 µM

Record Nc1nc(N)c2c(n1)NC(c1ccccc1)C1CCc3ccccc3C1=N2 (stereo unspecified) ; system MOLT-4 leukemia; TGI = 14.7 µM
